# Target system: T1, human SIRPγ-His monomer protein (human, UniProt Q9P1W8 29-360)
# T1 construct: also called hSIRPγ
# T1 sequence (Q9P1W8 29-360 limits assumed): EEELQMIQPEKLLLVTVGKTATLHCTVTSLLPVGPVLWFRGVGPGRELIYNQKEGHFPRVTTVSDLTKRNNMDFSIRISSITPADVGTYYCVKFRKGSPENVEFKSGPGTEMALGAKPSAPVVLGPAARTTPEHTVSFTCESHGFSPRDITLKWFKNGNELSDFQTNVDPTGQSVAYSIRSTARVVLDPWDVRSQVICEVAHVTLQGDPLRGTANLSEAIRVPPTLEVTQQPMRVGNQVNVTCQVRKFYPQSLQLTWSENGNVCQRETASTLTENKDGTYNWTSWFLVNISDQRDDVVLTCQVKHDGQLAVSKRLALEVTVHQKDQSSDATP
# Test description: BLI Octet, V5-scFv PPE captured, SIRP-His 500 nM
Below, each entry is listed alongside its reported kdis.

Binder	kdis
Antibody 37 (scFv, V domains shown, scFv in crude PPE, V5/myc-tagged) VH: QVQLVQSGAEVKKPGASVKVSCKASGYTLNNYDINWVRQAPGQGLEWMGWISGYNGNTNYAQKLQGRVTMTRDTSTSTVYMELSSLRSEDTAVYYCARVGSSWEENDQWGQGTLVTVSS VL: DIQMTQSPSSLSASVGDRVTITCRASQSISRWLAWYQQKPGKAPKLLIYAASSLESGVPSRFSGSGSGTDFTLTISSLQPEDFATYYCQQTHSFPLTFGGGTKVEIK	0.001 to 0.01 s⁻¹
Antibody 35 (scFv, V domains shown, scFv in crude PPE, V5/myc-tagged) VH: QVQLVQSGAEVKKPGASVKVSCKASGYTFTSYYIHWVRQAPGQGLEWMGTINPSGGSTSYAQKFQGRVTMTRDTSTSTVYMELSSLRSEDTAVYYCARETSRWLRDYYYGMDVWGQGTTVTVSS VL: DIVMTQSPLSLPVTPGEPASISCRSSQSLLHSNGYNYLDWYLQKPGQSPQLLIYDASSLESGVPDRFSGSGSGTDFTLKISRVEAEDVGVYYCMQGTHWPLTFGGGTKVEIK	0.001 to 0.01 s⁻¹
Antibody 12 (scFv, V domains shown, scFv in crude PPE, V5/myc-tagged) VH: QVQLVQSGAEVKKPGASVKVSCKASGGTFGSYGINWVRQAPGQGLEWMGWISAYNGNTNYAQKLQGRVTMTRDTSTSTVYMELSSLRSEDTAVYYCARDGIDYGGNSGYDYWGQGTLVTVSS VL: DIQMTQSPSSLSASVGDRVTITCRASQNIRNYLNWYQQKPGKAPKLLIYAASSLQGGVPSRFSGSGSGTDFTLTISSLQPEDFATYYCQQSYNGPYTFGQGTKVEIK	0.001 to 0.01 s⁻¹

These measurements were taken from patent US20240400677A1.
